System: Talaromyces marneffei
assay_name: Antifungal activity against Penicillium marneffei at 10 ug/ml
Format: functional
condition_details: read-out: IZ
measurement_kind: zone of inhibition at 10 µg/mL (mm)
Return type: number; implicit unit mm.

>>> print(df.to_string())
                                   compound                measurement_kind  quantitative_result
0  CCOC(=O)C1=C(C)N=c2s/c(=C\c3ccc(SC)cc3)c(=O)n2C1c1ccc(SC)cc1 (stereo not given)  zone of inhibition at 10 µg/mL                   12

stdin: Quick one: zone of inhibition at 10 µg/mL for CCOC(=O)C1=C(C)N=c2s/c(=C\c3ccc(F)c(Oc4ccccc4)c3)c(=O)n2C1c1ccc(SC)cc1 (stereo not given) ?
stdout: 19

stdin: Quick one: zone of inhibition at 10 µg/mL for CCOC(=O)C1=C(C)N=c2s/c(=C\c3ccc(O)c(OC)c3)c(=O)n2C1c1ccc(SC)cc1 (stereo not given) ?
stdout: 19

stdin: Quick one: zone of inhibition at 10 µg/mL for CCOC(=O)C1=C(C)N=c2s/c(=C\c3ccc(F)cc3)c(=O)n2C1c1ccc(SC)cc1 (stereo not given) ?
stdout: 20

stdin: Quick one: zone of inhibition at 10 µg/mL for CCOC(=O)C1=C(C)N=c2s/c(=C\c3ccc(Cl)cc3)c(=O)n2C1c1ccc(SC)cc1 (stereo not given) ?
stdout: 10

----------
System: Talaromyces marneffei
assay_name: Antifungal activity against Penicillium marneffei by dilution method
Assay type: functional
measurement_kind: MIC (µg/mL)
Return type: number; implicit unit µg/mL.

# count of solved cases: 5
                                   compound          tested_system  quantitative_result
0  CCOC(=O)C1=C(C)N=c2s/c(=C\c3ccc(-c4ccc(Cl)cc4Cl)o3)c(=O)n2C1c1ccc(SC)cc1 (stereo not drawn)  Talaromyces marneffei                    6
1  CCOC(=O)C1=C(C)N=c2s/c(=C\c3ccc(Cl)cc3)c(=O)n2C1c1ccc(SC)cc1 (stereo not drawn)  Talaromyces marneffei                 12.5
2  CCOC(=O)C1=C(C)N=c2s/c(=C\c3ccc(F)c(Oc4ccccc4)c3)c(=O)n2C1c1ccc(SC)cc1 (stereo not drawn)  Talaromyces marneffei                    6
3  CCOC(=O)C1=C(C)N=c2s/c(=C\c3ccc(O)c(OC)c3)c(=O)n2C1c1ccc(SC)cc1 (stereo not drawn)  Talaromyces marneffei                    6
4  CCOC(=O)C1=C(C)N=c2s/c(=C\c3ccc(O)cc3)c(=O)n2C1c1ccc(SC)cc1 (stereo not drawn)  Talaromyces marneffei                 12.5

stdin: Quick one: MIC for CCOC(=O)C1=C(C)N=c2s/c(=C\c3ccc(OC)cc3)c(=O)n2C1c1ccc(SC)cc1 (stereo not drawn) ?
stdout: 12.5

stdin: Quick one: MIC for CCOC(=O)C1=C(C)N=c2s/c(=C\c3ccc(F)cc3)c(=O)n2C1c1ccc(SC)cc1 (stereo not drawn) ?
stdout: 6

stdin: Quick one: MIC for CCOC(=O)C1=C(C)N=c2s/c(=C\c3ccc(-c4ccc(Br)cc4)o3)c(=O)n2C1c1ccc(SC)cc1 (stereo not drawn) ?
stdout: 6

stdin: Quick one: MIC for CCOC(=O)C1=C(C)N=c2s/c(=C\c3ccc(Cl)cc3Cl)c(=O)n2C1c1ccc(SC)cc1 (stereo not drawn) ?
stdout: 12.5

stdin: Quick one: MIC for CCOC(=O)C1=C(C)N=c2s/c(=C\c3ccc(-c4ccc([N+](=O)[O-])cc4)o3)c(=O)n2C1c1ccc(SC)cc1 (stereo not drawn) ?
stdout: 12.5

stdin: Quick one: MIC for CCOC(=O)C1=C(C)N=c2s/c(=C\c3ccc(SC)cc3)c(=O)n2C1c1ccc(SC)cc1 (stereo not drawn) ?
stdout: 12.5

stdin: Quick one: MIC for CCOC(=O)C1=C(C)N=c2s/c(=C\c3ccc(-c4ccc(Cl)cc4)o3)c(=O)n2C1c1ccc(SC)cc1 (stereo not drawn) ?
stdout: 12.5

stdin: Quick one: MIC for CCOC(=O)C1=C(C)N=c2s/c(=C\c3ccc4c(c3)OCO4)c(=O)n2C1c1ccc(SC)cc1 (stereo not drawn) ?
stdout: 12.5

Origin of the recorded values: ChEMBL document CHEMBL1143775
